EC50: recorded values
- target-system: hGLP-1R (Homo sapiens)
- Sequence (P43220 24-463): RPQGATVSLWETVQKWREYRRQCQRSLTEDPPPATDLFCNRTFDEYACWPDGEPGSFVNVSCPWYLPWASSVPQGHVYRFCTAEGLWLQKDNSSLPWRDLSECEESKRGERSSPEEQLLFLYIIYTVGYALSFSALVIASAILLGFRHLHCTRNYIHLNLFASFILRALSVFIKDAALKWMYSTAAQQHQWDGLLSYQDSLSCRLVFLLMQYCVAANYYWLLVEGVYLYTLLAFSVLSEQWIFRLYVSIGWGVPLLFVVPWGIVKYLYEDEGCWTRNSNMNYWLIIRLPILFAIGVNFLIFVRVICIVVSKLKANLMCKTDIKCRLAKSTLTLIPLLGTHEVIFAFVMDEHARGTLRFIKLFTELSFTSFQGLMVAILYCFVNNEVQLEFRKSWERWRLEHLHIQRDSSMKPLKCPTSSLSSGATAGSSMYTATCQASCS
- test-name: Functional cAMP activation in the presence of 0.1% casein (no HSA);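 also: intracellular cAMP rise after 30 min at 37 °C read by HTRF, normalized between buffer only (0%) and maximal control ligand (100%), four-parameter variable-slope fit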
- Type: cell-based
- details: in the presence of 0.1% casein (no HSA); geometric mean; read-out: Relative cAMP EC50, hGLP-1R
Starred links: 1 amine or outer side, 2 acyl side, 3 side chain; linkers in the order of their positions; H or OH if unused. Non-standard residues stand in square brackets, D forms with d. Groups on a side chain read outwards from the residue. No end group written: not given here. *: point of attachment. C20 diacid = O=C(O)CCCCCCCCCCCCCCCCCCC(=O)*; C18 diacid = O=C(O)CCCCCCCCCCCCCCCCC(=O)*; γGlu = O=C(O)[C@H](CCC(=O)[*:2])N[*:1]; αMe4Pal = C[C@](N)(Cc1ccncc1)C(=O)O; 4Pal = N[C@@H](Cc1ccncc1)C(=O)O; αMeL = CC(C)C[C@](C)(N)C(=O)O; Orn = NCCC[C@H](N)C(=O)O; AEEA = NCCOCCOCC(=O)O; Aib = CC(C)(N)C(=O)O
parameter: EC50 (nM)

{"columns": ["substance", "test-value"],
 "data": [
  ["H-Y[Aib]QGTFTSD[4Pal]SQ[αMeL]LDKK([γGlu-γGlu-C18 diacid])AQ[αMe4Pal]AFIEYLIE[Aib]GPSSGAPPPSGTE-NH2 [Example 1126]", 4.56],
  ["Y[Aib]QGTFTSDFSK[αMeL]LDKK([AEEA-γGlu-C20 diacid])AQ[Aib]AFIQYLLAGGPSSGEPPPSEG-NH2 [Example 27]", 2.33],
  ["H-Y[Aib]QGTFTSD[4Pal]SR[αMeL]LDKK([AEEA-γGlu-C18 diacid])AQ[αMe4Pal]AFIEYLIE[Aib]GESSGAPPPSGS-NH2 [Example 224]", 1.89],
  ["H-Y[Aib]QGTFTSDFS[Orn][αMeL]LDKK([AEEA-γGlu-C18 diacid])AQ[Aib]AFIEWLLEGGPSSGAPPPTGS-NH2 [Example 250]", 2.08],
  ["Y[Aib]QGTFTSDFSK[αMeL]LDKK([AEEA-γGlu-C20 diacid])AQ[Aib]AFIQWLLEGGPSSGAPPPSEG-NH2 [Example 39]", 2.13],
  ["H-Y[Aib]QGTFTSDFS[Orn][αMeL]LDKK([AEEA-γGlu-C18 diacid])AQ[Aib]AFIEWLLEGGSSSGAPPPSGE-NH2 [Example 172]", 3.5],
  ["H-Y[Aib]QGTFTSDFS[Orn][αMeL]LDKK([AEEA-γGlu-C20 diacid])AQ[Aib]AFIEWLLAGGPSSGEPPPSGE-NH2 [Example 103]", 3.27]
]}

###

Quick list: pEC50 per entry.
- target-system: human GLP1-R (Homo sapiens, UniProt P43220)
- Sequence (P43220 24-463): as the sequence (P43220 24-463) above
- test-name: GLP1-R internalization assay in HEK293 cells
- Type: cell-based
- details: HEK293 cells expressing SNAP-GLP-1R; read-out: GLP1R Internalization EC50
pEC50: −log10 of the molar value. Starred links: 1 amine or outer side, 2 acyl side, 3 side chain; linkers in the order of their positions; H or OH if unused. Non-standard residues stand in square brackets, D forms with d. Groups on a side chain read outwards from the residue. *: point of attachment. C20 diacid = O=C(O)CCCCCCCCCCCCCCCCCCC(=O)*; C18 diacid = O=C(O)CCCCCCCCCCCCCCCCC(=O)*; γGlu = O=C(O)[C@H](CCC(=O)[*:2])N[*:1]; αMe4Pal = C[C@](N)(Cc1ccncc1)C(=O)O; 4Pal = N[C@@H](Cc1ccncc1)C(=O)O; αMeL = CC(C)C[C@](C)(N)C(=O)O; Orn = NCCC[C@H](N)C(=O)O; AEEA = NCCOCCOCC(=O)O; Aib = CC(C)(N)C(=O)O
parameter: pEC50

{"columns": ["substance", "test-value"],
 "data": [
  ["H-Y[Aib]QGTFTSDFSK[αMeL]LDKK([AEEA-γGlu-C20 diacid])AQ[Aib]AFIEYLLAGGPSSGEPPPSSE-NH2 [Example 3]", 7.31],
  ["H-Y[Aib]QGTFTSD[4Pal]SR[αMeL]LDKK([AEEA-γGlu-C18 diacid])AQ[αMe4Pal]AFIEYLIE[Aib]GESSGAPPPSGE-NH2 [Example 225]", 7.59],
  ["H-Y[Aib]QGTFTSDFS[Orn][αMeL]LDKK([AEEA-γGlu-C18 diacid])AQ[Aib]AFIEWLLEGGSSSGAPPPSGE-NH2 [Example 172]", 6.92]
]}
